The reported measurements were obtained from BigSolDB 2.1.

# Test Context: in ethanol, 288.15 K
Readout Type: solubility (mole fraction)

Ask | Check the records and state solubility (mole fraction) for `Nc1cccc(Cl)c1C(=O)O`
Reply | 0.0408

---

# Test Context: in NMP, 313.15 K
Readout Type: solubility (mole fraction)
Give bare numbers.

Ask | Return reported solubility (mole fraction). Input compound: `Nc1cccc(Cl)c1C(=O)O`
Reply | 0.155

---

# Test Context: in isobutanol, 283.15 K
Readout Type: solubility (mole fraction)

Ask | Check the records and state solubility (mole fraction) for `Nc1cccc(Cl)c1C(=O)O`
Reply | 0.0145

---

# Test Context: in ethanol, 303.15 K
Readout Type: solubility (mole fraction)

Ask | Report solubility (mole fraction) for `Nc1cccc(Cl)c1C(=O)O`
Reply | 0.0702
